- Tested on: MS2 coat protein
- TEST NAME: apparent KD of MS2 coat protein; designed switch direction (-1 OFF switch, 1 ON switch): -1; higher = weaker reporter binding
- PROTOCOL CONDITIONS: input ligand: none
Property: apparent KD of MS2 coat protein; scope: individual sequences
Give just the numeric value; nM need not be written.

Example results:
* UUAAAGGCAGGAUAUACAUUUUUUUUAUUAUCCUCAUUAUUACAUGAGGAUCACCCAUGUAGAAGGGCCAAAUU [Mat - Exclusion 2 - Mod of Hog - D85] (Eterna round: R96, puzzle: Exclusion 2) | 357
* UUGGAACAUGAGGAUCACCCAUGUCAGGAUAUUCCAAAAUCGUCGAAAGACGAUAACAGAAGAAGGGACAUUAG [Fiskxlusion 9 - Jieux - Exclusion 1] (Eterna round: R97, puzzle: Exclusion 1) | 80.2
* GCACAGGCAGGAUAUACAUGAGGAUCACCCAUGUGAUCCCUUAGGUACAAAAGUACUAGUAGAAGGGCCUGUGC [Omei Ex3 Model Bachelor's Dilema v49] (Eterna round: R97, puzzle: Exclusion 3) | 1040
* UAACAUGUACAAGGAUAUCAGCACGUUUAGUGCUGAGAAGGUGUAACAUGAGGAUCACCCAUGUAGAUCAUUAAUUAAUUAAUU [ENG1/9-B2] (Eterna round: R96, puzzle: Exclusion NG 1) | 102

Then there is this sequence:
// lookup apparent KD of MS2 coat protein | system=MS2 coat protein | key= GACUCAAUCCGAGGAUAUUGCCAGCGCUGCUAUCACAUGAGGAUCACCCAUGUAUCCUCGGCUUUCGAGAAGGCGGAUUGAGCG [Eternabot solution 35] (Eterna round: R96, puzzle: Exclusion NG 2)
49.9

====

- Test system: MS2 coat protein
- TEST NAME: apparent KD of MS2 coat protein; designed switch direction (-1 OFF switch, 1 ON switch): -1; higher = weaker reporter binding
- PROTOCOL CONDITIONS: input ligand: FMN 200 uM
Property: apparent KD of MS2 coat protein; scope: individual sequences
Give just the numeric value; nM need not be written.

Example results:
* CGAAUGUCAGGAUAUCGUGCAUACAACGAAAGUUCUAUGUGCGAGAAGGGACAUGAGGAUCACCCAUGUCUUCG [Omei Ex4 A14] (Eterna round: R97, puzzle: Exclusion 4) | 75.6
* AGUCGGCGAGGAUAUACAUGAGGAUCACCCAUGUGAGAGAAUAAAGUGAGUUAGACAAGUAGAAGGCGCUGACA [JL Lego Mod 10] (Eterna round: R96, puzzle: Exclusion 3) | 356
* UAUAUGUUAGGAUAUUAGUAGUAAAUAAAUAAAAUUAUUACUGAGAAGGGACAUGAGGAUCACCCAUGUACCUC [Salish 062 v33] (Eterna round: R97, puzzle: Exclusion 4) | 21.9
* UACACGGUAGGAUAUACGUAGAUGCAGGUUCGUGUGGUGCUACAUGAGGAUCACCCAUGUAGAAGGGCCAACGU [Mod 6 R3 JL-ex2-2.29 - Jieux - Exclusion 2] (Eterna round: R97, puzzle: Exclusion 2) | 15.1

What value of measured apparent KD of MS2 coat protein is listed for UUAGGUAAAGGAUAUGUAUGGGCGACCCAUAUGACCGAGUGACAUGAGGAUCACCCAUGUAGAAGGUUGCUGAU [Eternabot (L1) Solution 60] (Eterna round: R97, puzzle: Exclusion 2) ?
125
